// provenance: ChEMBL document CHEMBL5291721

The following compounds each carry a recorded AC50 for Adenosine receptor A3 (Homo sapiens).

Here is how some compounds turned out for AC50.
C=CC1=C(C(=O)O)N2C(=O)[C@@H](NC(=O)/C(=N\O)c3csc(N)n3)[C@H]2SC1 : > 30 µM
CC(C)(CO)c1cc2cc(NC(=O)C3(c4ccc5c(c4)OC(F)(F)O5)CC3)c(F)cc2n1C[C@@H](O)CO [TEZACAFTOR] : > 30 µM
CCC1(CC)C(=O)NC(=O)N(C)C1=O [METHARBITAL] : > 10 µM

Now let's try a different one.
AC50 lookup needed for CCC1(c2ccccc2)C(=O)NCNC1=O [PRIMIDONE] , thanks. > 10 µM
